- procedure details: Solubility
- Format: physicochemical
Some molecules, each annotated with its measured solubility.

These recorded examples may help you get a feel for the data.
I am curious: what solubility value has been reported for OCC1O[C@@H](SC2O[C@H](CO)C(O)C(n3cc(C4CCOCC4)nn3)[C@H]2O)C(O)[C@@H](n2cc(-c3cc(F)c(F)c(F)c3)nn2)[C@H]1O (some centres unmarked) ? 8.1 mg/mL

Repeat for the following molecule: CC(C)c1cn(C2C(O)[C@@H](CO)OC(S[C@@H]3OC(CO)[C@H](O)[C@H](n4cc(-c5cc(F)c(F)c(F)c5)nn4)C3O)[C@@H]2O)nn1 (some centres unmarked) > 10 mg/mL

Repeat for the following molecule: OCC1O[C@@H](SC2O[C@H](CO)C(O)C(n3cc(N4CCOCC4)nn3)[C@H]2O)C(O)[C@@H](n2cc(-c3cc(F)c(F)c(F)c3)nn2)[C@H]1O (some centres unmarked) > 10 mg/mL

Repeat for the following molecule: CN1CCN(c2cn(C3C(O)[C@@H](CO)OC(S[C@@H]4OC(CO)[C@H](O)[C@H](n5cc(-c6cc(F)c(F)c(F)c6)nn5)C4O)[C@@H]3O)nn2)CC1 (some centres unmarked) > 10 mg/mL

***
I am curious: what solubility value has been reported for OCC1O[C@@H](SC2O[C@H](CO)C(O)C(n3cc(C4CCNCC4)nn3)[C@H]2O)C(O)[C@@H](n2cc(-c3cc(F)c(F)c(F)c3)nn2)[C@H]1O (some centres unmarked) ? > 10 mg/mL

Data credit: patent US10730902B2
